Recorded values, source ChEMBL document CHEMBL1201861.

Tested on: SNB-75;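 further: cell viability assay measuring growth inhibition of human SNB-75 cells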
Assay: cells
Type: functional, cell-based, Homo sapiens
Conditions: snb-75
Description: SANGER: Inhibition of human SNB75 cell growth in a cell viability assay.
TEST_READOUT: pIC50
The scale used: pIC50 is minus the common logarithm of the concentration in molar units.

Requested field: pIC50. Item: "BLEOMYCIN" 5.79

----------
System: NB12;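 further: growth inhibition of human NB12 cells, read out by a cell viability assay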
Experiment: cells
Assay type: functional, cell-based, Homo sapiens
Details: Homo sapiens, NB12
Description: SANGER: Inhibition of human NB12 cell growth in a cell viability assay.
TEST_READOUT: IC50 (nM)
The response must be a number in nM with no trailing unit.

Worked cases, IC50 given:
[[record]]
compound = "Nc1ccn([C@@H]2O[C@H](CO)[C@@H](O)C2(F)F)c(=O)n1 [GEMCITABINE]"
target_or_system = "NB12"
recorded_value = 155

[[record]]
compound = "CC(C)c1ccccc1Cc1cc(C(=O)Nc2ccc(S(=O)(=O)c3ccccc3C(C)(C)C)cc2)c(O)c(O)c1O"
target_or_system = "NB12"
recorded_value = 136


Attention now shifts to the item below.
Requested field: IC50. Item: COc1cccc2c1C(=O)c1c(O)c3c(c(O)c1C2=O)C[C@@](O)(C(=O)CO)C[C@@H]3O[C@H]1C[C@H](N)[C@H](O)[C@H](C)O1 [DOXORUBICIN] 277

----------
Tested on: NCI-H1838;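 further: growth inhibition of NCI-H1838 cells, determined with a cell viability readout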
Experiment: cells
Assay type: functional, cell-based, Homo sapiens
Settings: Homo sapiens, NCI-H1838
Description: SANGER: Inhibition of human NCI-H1838 cell growth in a cell viability assay.
pIC50: −log10 of the molar value.
TEST_READOUT: pIC50

[[record]]
compound = "Nc1cccc2c1CN(C1CCC(=O)NC1=O)C2=O (centres undefined) [LENALIDOMIDE]"
recorded_value = "< 5.30"

[[record]]
compound = "CC(C)CCN1c2nc(Nc3cc(F)c(O)c(F)c3)ncc2N(C)C(=O)C1C (centres undefined)"
recorded_value = "< 5.30"

[[record]]
compound = "COc1cc2ncn(-c3cc(OCc4ccccc4C(F)(F)F)c(C(N)=O)s3)c2cc1OC [GW843682X]"
recorded_value = "< 6.59"


Attention now shifts to the item below.
Entry "COc1cc(N2CCN(C)CC2)ccc1Nc1ncc2c(n1)N(C)c1ccccc1C(=O)N2C" , system NCI-H1838: what pIC50 was measured? < 5.10

----------
Test system: HCC38;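 further: cell viability assay on the human HCC38 cell line, with IC50 marking the concentration that inhibits cell growth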
Assay: cells
Type: functional, cell-based, Homo sapiens
Conditions: hcc38
Description: SANGER: Inhibition of human HCC38 cell growth in a cell viability assay.
TEST_READOUT: IC50 (µM)
The response must be a number in µM with no trailing unit.

[[record]]
sequence_code = "BLEOMYCIN"
recorded_value = 0.0312


Attention now shifts to the item below.
Requested field: IC50. Item: "CISPLATIN" 160

----------
Tested on: COLO-680N;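 further: cell viability assay used to measure inhibition of COLO-680N cell growth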
Experiment: cells
Format: functional, cell-based, Homo sapiens
Conditions: Homo sapiens, COLO-680N
Description: SANGER: Inhibition of human COLO-680N cell growth in a cell viability assay.
pIC50: −log10 of the molar value. Structures can show the parent of a compound that is named as a salt.
We begin with a simple list: items and their reported pIC50.

Worked cases, pIC50 given:
[[record]]
molecule = "CCC/C=C/C=C/C(=O)O[C@H]1/C(=C/C(=O)OC)C[C@H]2C[C@H]([C@@H](C)O)OC(=O)C[C@H](O)C[C@@H]3C[C@H](OC(C)=O)C(C)(C)[C@](O)(C[C@@H]4C/C(=C/C(=O)OC)C[C@H](/C=C/C(C)(C)[C@]1(O)O2)O4)O3"
recorded_value = "< 8.10"

[[record]]
molecule = "CS(=O)(=O)c1ccc(C(=O)Nc2ccc(Cl)c(-c3ccccn3)c2)c(Cl)c1"
recorded_value = "< 5.00"

[[record]]
molecule = "COC1=CC(c2cc3ccccc3[nH]2)=N/C1=C\\c1[nH]c(C)cc1C [OBATOCLAX MESYLATE]"
recorded_value = 7.30

[[record]]
molecule = "COc1cccc2c1C(=O)c1c(O)c3c(c(O)c1C2=O)C[C@@](O)(C(=O)CO)C[C@@H]3O[C@H]1C[C@H](N)[C@H](O)[C@H](C)O1"
recorded_value = 7.47

[[record]]
molecule = "O=C(O)c1ccc(-c2c[nH]c3ncc(-c4ccccc4)cc23)cc1C1CCCC1"
recorded_value = "< 4.80"

[[record]]
molecule = "CC(C)CCN1c2nc(Nc3cc(F)c(O)c(F)c3)ncc2N(C)C(=O)C1C (configuration not stated)"
recorded_value = "< 5.30"


Attention now shifts to the item below.
Requested field: pIC50. Item: "Oc1ccc2ccccc2c1SSc1c(O)ccc2ccccc12" < 4.49
